Reported melting point by item:

// worked examples, melting point included
CC12CCC(O)CC1CCC1C2CCC23C(=O)C=CCC2CCC13 (stereo not shown) [Compound 35b]	222 to 223 °C
CC12CCC(O)CC1CCC1C2CCC23CCC(=O)CC2CCC13 (stereo not shown)	175 to 177 °C

Using known records, supply melting point for C[C@]12CC[C@@H](O)C[C@@H]1CCC1C3CC[C@@H]4CC(=O)CC[C@]34CCC12 (stereo partly shown) 195 to 197 °C

Using known records, supply melting point for CC12CCC(O)CC1CCC1C2CCC23C(=O)C=CCC2CCC13 (stereo not shown) [Compound 35a] 242 to 243 °C

Using known records, supply melting point for CC12CCC(O)CC1CCC1C2CCC23C=CC(=O)CC2CCC13 (stereo not shown) [Compound 30b] 196.5 to 199 °C

Using known records, supply melting point for CC(=O)C1CCCC23CCC4C(CCC5CC(O)CCC54C)C2CCC13 (stereo not shown) [Compound 79] 187 to 189 °C

Using known records, supply melting point for CC(=O)C1=CCCC23CCC4C(CCC5CC(O)CCC54C)C2CCC13 (stereo not shown) 198 to 200 °C

Using known records, supply melting point for CC(=O)C1CCCC23CCC4C(CCC5CC(O)CCC54C)C2CCC13 (stereo not shown) [Compound 80] 228 to 229 °C

Using known records, supply melting point for CC12CCC(O)CC1CCC1C2CCC23C=C(Br)C(=O)C2CCC13 (stereo not shown) 220 to 222.5 °C

Using known records, supply melting point for CC12CCC(O)CC1CCC1C2CCC23CCC=CC2CCC13 (stereo not shown) [Compound 13a] 169 to 170 °C

---

biological target: rat α1β2γ2 GABAA Receptor (Rattus norvegicus, UniProt P18508+P62813+P63138, INS375LLRMFSFK); construct: from linearized pBluescript vectors containing receptor coding regions; expressed in transfected cells; host or cells: Xenopus laevis oocytes injected with in vitro transcribed capped mRNA; test: Xenopus oocyte two-electrode voltage-clamp electrophysiology; format: cell-based; settings: 10 μM compound co-applied with 2 μM GABA; −70 mV
Sequence (P62813 28-455, stated change not applied): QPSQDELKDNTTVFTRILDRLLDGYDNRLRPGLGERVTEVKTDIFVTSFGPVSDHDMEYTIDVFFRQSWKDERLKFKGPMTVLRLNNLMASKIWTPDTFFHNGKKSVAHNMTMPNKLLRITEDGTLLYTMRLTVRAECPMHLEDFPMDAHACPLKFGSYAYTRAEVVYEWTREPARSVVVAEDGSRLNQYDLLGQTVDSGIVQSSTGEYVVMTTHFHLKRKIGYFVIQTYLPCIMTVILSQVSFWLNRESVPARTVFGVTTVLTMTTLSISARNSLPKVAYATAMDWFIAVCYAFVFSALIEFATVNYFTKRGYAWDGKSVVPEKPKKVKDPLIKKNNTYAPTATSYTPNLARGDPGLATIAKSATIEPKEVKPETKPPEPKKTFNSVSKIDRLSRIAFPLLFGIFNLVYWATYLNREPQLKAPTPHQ
Sequence (P63138 26-474, stated change not applied): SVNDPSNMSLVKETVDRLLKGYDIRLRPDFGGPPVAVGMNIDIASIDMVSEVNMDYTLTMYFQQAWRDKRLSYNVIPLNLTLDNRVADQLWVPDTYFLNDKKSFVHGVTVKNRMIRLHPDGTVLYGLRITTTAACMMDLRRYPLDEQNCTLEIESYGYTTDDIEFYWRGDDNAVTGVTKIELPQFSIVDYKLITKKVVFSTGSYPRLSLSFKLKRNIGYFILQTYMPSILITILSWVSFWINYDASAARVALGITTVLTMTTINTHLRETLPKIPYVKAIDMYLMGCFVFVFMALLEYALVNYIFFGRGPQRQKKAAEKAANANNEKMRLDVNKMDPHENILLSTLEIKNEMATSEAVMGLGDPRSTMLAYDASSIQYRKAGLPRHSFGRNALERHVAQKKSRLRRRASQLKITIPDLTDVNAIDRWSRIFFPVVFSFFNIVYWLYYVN
Sequence (P18508 with tags, fused parts or gaps INS375LLRMFSFK): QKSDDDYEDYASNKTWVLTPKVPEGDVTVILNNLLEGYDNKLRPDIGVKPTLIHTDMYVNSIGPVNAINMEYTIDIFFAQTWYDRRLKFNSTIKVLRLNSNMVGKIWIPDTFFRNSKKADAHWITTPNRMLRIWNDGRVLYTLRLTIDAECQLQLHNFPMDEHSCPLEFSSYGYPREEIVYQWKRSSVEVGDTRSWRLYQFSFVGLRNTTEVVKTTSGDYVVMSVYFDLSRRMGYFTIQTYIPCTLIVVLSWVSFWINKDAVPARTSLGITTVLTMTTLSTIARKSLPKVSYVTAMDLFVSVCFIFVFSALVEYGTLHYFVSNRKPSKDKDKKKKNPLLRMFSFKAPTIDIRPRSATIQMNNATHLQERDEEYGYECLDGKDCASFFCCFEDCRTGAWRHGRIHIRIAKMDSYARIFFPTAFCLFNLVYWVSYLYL
Observable: Oocyte electrophysiology, ratio of currents in presence/absence of compound, 10 μM
Lab note: write the figure by itself, no unit.

// worked examples, Oocyte electrophysiology, ratio of currents in presence/absence of compound, 10 μM included
CC12CCC(O)CC1CCC1C2CCC23C(=O)CCCC2CCC13 (stereo not drawn) [Compound 5b]	10.42
COC1CCCC23CCC4C(CCC5CC(O)CCC54C)C2CCC13 (stereo not drawn) [Compound 69]	1.72
C[C@]12CC[C@@H](O)C[C@@H]1CCC1C3CC[C@@H]4[C@@H](C#N)CCC[C@]34CCC12 (stereo partly drawn) [Compound 40]	1.27
CC12CCC(O)CC1CCC1C2CCC23CCC(=O)CC2CCC13 (stereo not drawn) [Compound 3b]	2.65
C[C@]12CC[C@@H](O)C[C@@H]1CCC1C3CC[C@@H]4C(C#N)=CCC[C@]34CCC12 (stereo partly drawn) [Compound 57]	3.18

Now look at this entry.
Using known records, supply Oocyte electrophysiology, ratio of currents in presence/absence of compound, 10 μM for CC12CCC(O)CC1CCC1C2CCC23CC=CC(=O)C2CCC13 (stereo not drawn) [Compound 11b] 2.34
